Test system: Mus musculus
test: Brain GABA level was measured in mice 6 hour after intraperitoneal administration at a dose of 1.9 mM/ kg.
Assay type: functional
I'd be grateful if you could share measured Activity for these entries.
Just the number please, in µM/g, no unit attached.

Ask: Report Activity for NC(C=C(F)F)CCC(=O)O (centres undefined) please.
Result: 2.8

Ask: Report Activity for C=C(F)C(N)CCC(=O)O (centres undefined) please.
Result: 3.6

Ask: Report Activity for NC(/C=C\F)CCC(=O)O (centres undefined) please.
Result: 9.8

Ask: Report Activity for C=CC(N)CCC(=O)O (centres undefined) please.
Result: 9.1

* * *

I'd be grateful if you could share measured pKa for these entries.
test: Dissociation constant pKa was reported.
Type: physicochemical

Ask: Report pKa for NC(C=C(F)F)CCC(=O)O (stereo unspecified) please.
Result: 9.32

Ask: Report pKa for C=CC(N)CCC(=O)O (stereo unspecified) please.
Result: 9.5

Ask: Report pKa for C=C(F)C(N)CCC(=O)O (stereo unspecified) please.
Result: 8.32

Ask: Report pKa for NC(CCC(=O)O)C(F)=C(F)F (stereo unspecified) please.
Result: 7.87

Ask: Report pKa for NC(/C=C\F)CCC(=O)O (stereo unspecified) please.
Result: 9.35

Ask: Report pKa for C#CC(N)CCC(=O)O (stereo unspecified) please.
Result: 8.2
